System: NCI-H226 lung
Test: NCI-60 one-dose screen, 48 h (100 = growth as untreated, 0 = no growth, -100 = all killed)
Settings: 10 µM unless noted
The panel holds about 83,000 compounds, 20% with a hit somewhere; the sample as a whole holds those more often.
Doc: threshold 90% (exclusive). Items with growth beneath it return true (1); others return false (0).

stdin: Does `CC(C)[C@H]1c2[nH]c3ccccc3c2C[C@H]2C(=O)N(CCCCCCC(=O)NO)CC(=O)N12` have growth strictly under 90%?
stdout: false (0)

stdin: Does `COc1ccc2c(c1)c(-c1nc(N)nnc1-c1c[nH]c3ccccc13)cn2C` have growth strictly under 90%?
stdout: true (1)

stdin: Does `CCN(CC)c1ccc(/C=N/NC(=O)c2ccc(S(N)(=O)=O)cc2)cc1` have growth strictly under 90%?
stdout: true (1)

stdin: Does `CN1CCN(c2ccc(Nc3nc(NCCCNS(=O)(=O)c4ccc(F)cc4)c4sccc4n3)cc2)CC1` have growth strictly under 90%?
stdout: false (0)

stdin: Does `COc1ccccc1/C=C1\Oc2ccc(O)c(O)c2C1=O` have growth strictly under 90%?
stdout: false (0)

stdin: Does `O=C(CCCCCCNC(=O)C(O)(O)C(F)(F)F)Nc1nc2ccccc2s1` have growth strictly under 90%?
stdout: true (1)

stdin: Does `Cc1nc(N)sc1-c1csc(Nc2ccc(C(F)(F)F)cc2)n1` have growth strictly under 90%?
stdout: true (1)

###

System: SR leukemia
Experiment: NCI-60 one-dose screen, 48 h (100 = growth as untreated, 0 = no growth, -100 = all killed)
Details: 10 µM unless noted
The panel holds about 83,000 compounds, 20% with a hit somewhere; the sample as a whole holds those more often.
ENDPOINT: growth (%)
Return type: number; implicit unit %.

stdin: Note down growth recorded for OCC(Nc1ncnc2ccc(-c3cnc4cnccn34)cc12)c1ccccc1 (centres undefined)
stdout: 73.5

stdin: Note down growth recorded for `Cc1ccc2c(n1)C(=O)C(Cl)=C(Nc1ccccc1C(=O)OC(C)(C)C)C2=O`
stdout: -30.8

stdin: Note down growth recorded for CC(Nc1ncnc2ccc(-c3cnc(N)nc3)cc12)c1ccccc1 (centres undefined)
stdout: 15.1

stdin: Note down growth recorded for `Brc1cc(-c2cc(-c3ccc4c(c3)OCCO4)[nH]n2)cs1`
stdout: 14.2

stdin: Note down growth recorded for `Cc1ncn(-c2ccc(/C=N/Nc3ccnc4cc(Cl)ccc34)cc2)c1C`
stdout: -21.3

stdin: Note down growth recorded for `COC(=O)[C@@H](Cc1c[nH]c2ccccc12)NC(=O)CCCCOc1cc(O)c2c(=O)cc(-c3ccccc3)oc2c1`
stdout: 72.3

stdin: Note down growth recorded for `CC(=C(c1ccc(OCCN2CCCC2)cc1)c1ccc(OCCN2CCCC2)cc1)c1ccc(Cl)cc1`
stdout: -45.8

stdin: Note down growth recorded for `Cc1[nH]c(C(=O)Nc2ccc(C(=O)NCC3CCNCC3)cc2OC(C)C)c(Cl)c1Cl`
stdout: -0.735

stdin: Note down growth recorded for `CCOP(=O)(OCC)OC[C@]12CCC(C)(C)C[C@H]1C1=CC[C@@H]3[C@@]4(C)CC[C@H](OP(=O)(OCC)OCC)C(C)(C)[C@@H]4CC[C@@]3(C)[C@]1(C)CC2`
stdout: 35

###

Test system: MCF7 breast
Experiment: NCI-60 one-dose screen, 48 h (100 = growth as untreated, 0 = no growth, -100 = all killed)
Details: 10 µM unless noted
Compounds without any hit were thinned out: in the full panel of roughly 83,000, 20% have a hit.
Doc: threshold 30% (exclusive). Items with growth beneath it return true; others return false.

stdin: Does `C#C[C@]1(O)CC[C@H]2[C@@H]3CC=C4c5sc(Nc6ncccc6C)nc5CC[C@]4(C)[C@H]3CC[C@@]21C` have growth strictly under 30%?
stdout: true

stdin: Does `C[C@@H]1OCC2(CCN(c3cnc(C(=O)Nc4cc(F)cc5cccnc45)cn3)CC2)[C@@H]1N` have growth strictly under 30%?
stdout: true

stdin: Does CC1=Cc2ccccc2OC12C=Cc1ccccc1O2 (centres undefined) have growth strictly under 30%?
stdout: false

stdin: Does `C=C(C)[C@@H]1CC[C@]2(C(=O)N3CCN(C)CC3)CC[C@]3(C)[C@H](CC[C@@H]4[C@@]5(C)CC[C@H](OP(=O)(OCC)OCC)C(C)(C)[C@@H]5CC[C@]43C)[C@@H]12` have growth strictly under 30%?
stdout: false

stdin: Does `COc1ccccc1/C=C1\Oc2ccc(O)c(O)c2C1=O` have growth strictly under 30%?
stdout: false

stdin: Does `COC(=O)[C@@H](Cc1c[nH]c2ccccc12)NC(=O)CCCCOc1cc(O)c2c(=O)cc(-c3ccccc3)oc2c1` have growth strictly under 30%?
stdout: false

stdin: Does `N#Cc1c(-c2cccs2)cc(-c2cnccn2)nc1SCC(=O)N/N=C/c1cccs1` have growth strictly under 30%?
stdout: false

stdin: Does `Cc1ccc2c(n1)C(=O)C(Cl)=C(Nc1cccc(C)c1C)C2=O` have growth strictly under 30%?
stdout: true

stdin: Does `Cc1ccc(S(=O)(=O)c2nc(-c3ccc(F)cc3)oc2S(C)(=O)=O)cc1` have growth strictly under 30%?
stdout: false

###

Test system: KM12 colon
Test: NCI-60 one-dose screen, 48 h
Settings: 10 µM unless noted
Compounds without any hit were thinned out: in the full panel of roughly 83,000, 20% have a hit. Calls of active or inactive are those of the source. Rule for the calls: active = growth percent below 10; inactive = the rest.
The reply should name one outcome from active, inactive

stdin: In this assay, the call recorded for `NS(=O)(=O)c1cccc(Nc2nc(SCC(=O)c3ccc(Cl)cc3)nc3c2CCC3)c1` was what?
stdout: inactive

stdin: In this assay, the call recorded for `C#CCN(C)CCCOc1ccc(NCc2ccc(C(=O)NO)cc2)cc1Cl` was what?
stdout: inactive

stdin: In this assay, the call recorded for `O=C(CCCCCCNC(=O)C(O)(O)C(F)(F)F)Nc1ncc(-c2ccc(Br)cc2)s1` was what?
stdout: active

stdin: In this assay, the call recorded for `CC(C)(C)OC(=O)NCc1ccc(CNc2c([N+](=O)[O-])cnc3ccccc23)cc1` was what?
stdout: inactive

stdin: In this assay, the call recorded for `COc1ccc(/C=N/NC(=O)c2c(N)nn(C)c2Nc2ccccc2)cc1Oc1ccccc1` was what?
stdout: inactive

###

Please respond with reported growth for every item in the list.
Test system: NCI-H226 lung
Assay: NCI-60 one-dose screen, 48 h (100 = growth as untreated, 0 = no growth, -100 = all killed)
Conditions: 10 µM unless noted
Description: Growth inhibition of the NCI-H226 human Non-Small Cell Lung tumor cell line is measured as a screen for anti-cancer activity. Cells are grown in 96 well plates and exposed to the test compound for 48 hours. Compounds are tested at a single concentration, which is 10^-5 M for most compounds. The reported endpoint is percent growth (GI% or GIPRCNT), where numbers from 0 - 100% represent growth inhibition, and numbers from -100% - 0 represent cell death. […]
Compounds without any hit were thinned out: in the full panel of roughly 83,000, 20% have a hit.
Return type: number; implicit unit %.

stdin: Note down growth recorded for `N#Cc1cccc(-c2cc(-c3ccc4c(c3)OCCO4)[nH]n2)c1`
stdout: 72.2

stdin: Note down growth recorded for `CN1CCN(CCCCCC(=O)Nc2nc(-c3cccc(NS(=O)(=O)c4cccc5c(N(C)C)cccc45)c3)cs2)CC1`
stdout: 85.9

stdin: Note down growth recorded for `O=C1C(SCc2ccccc2)=C(Cl)CN1c1ccccc1`
stdout: 101

stdin: Note down growth recorded for `COc1cc2oc(-c3cccc(NC(=O)[C@@H](N)C(C)C)c3)cc(=O)c2c(OC)c1OC`
stdout: 107

stdin: Note down growth recorded for `Cc1ccc(-c2cc3nc(C(Cl)Cl)nc(-c4ccc(S(=O)(=O)N(C)C)cc4)n3n2)cc1`
stdout: 87.7

stdin: Note down growth recorded for `CC1(C)CC[C@]2(C(=O)NCCCCCCN(CCCN)CCCN)CC[C@]3(C)C(=CC[C@@H]4[C@@]5(C)CC[C@H](O)C(C)(C)[C@@H]5CC[C@]43C)[C@@H]2C1`
stdout: 100

stdin: Note down growth recorded for `CNc1sc(S(=O)(=O)NC)nc1S(=O)(=O)c1ccc(C)cc1`
stdout: 92.5

stdin: Note down growth recorded for `O=C1[C@@H]2Cc3c([nH]c4ccccc34)[C@H](c3ccc(Cl)cc3)N2C(=O)CN1C1CCN(Cc2ccccc2)CC1`
stdout: 70.5

stdin: Note down growth recorded for C#CCOc1ccccc1C(OC(=O)c1ccccc1)C(=O)NC(C)(C)C(C)(C)C (centres undefined)
stdout: 82.1

stdin: Note down growth recorded for `CN1CCN(Cc2ccc(NC(=O)c3cncc(C#Cc4cnc5ccc(OC6CCOCC6)nn45)c3)cc2C(F)(F)F)CC1`
stdout: -58.4

stdin: Note down growth recorded for `O=C(/C=C/c1cccc(F)c1)c1cccc(OCCCCOc2cccc(C(=O)/C=C/c3cccc(F)c3)c2)c1`
stdout: 103

stdin: Note down growth recorded for `O=C1Nc2cc(Cl)ccc2/C1=C\c1ccc(OCc2ccccc2)cc1`
stdout: 92.9

stdin: Note down growth recorded for `C=C1CCc2nc(SCC(=O)O)ccc2N1`
stdout: 99

stdin: Note down growth recorded for `CCOC(=O)c1cccc(NC2=C(Cl)C(=O)C(C)=C(C)C2=O)c1`
stdout: 100

stdin: Note down growth recorded for `COc1ccc2sc(NC(=O)CCCCCCNC(=O)C(O)(O)C(F)(F)F)nc2c1`
stdout: 24.6

stdin: Note down growth recorded for NC1C2CCC1CN(c1cnc(C(=O)Nc3cc(F)cc4cccnc34)cn1)C2 (centres undefined)
stdout: 75.7

stdin: Note down growth recorded for `CC(C)Sc1nc(-c2ccccc2)c(C#N)c(N2CCOCC2)n1`
stdout: 55.1

stdin: Note down growth recorded for `CN1CCN(CCNc2nc(-c3cccc(NS(=O)(=O)c4cccc5c(N(C)C)cccc45)c3)cs2)CC1`
stdout: 66.3

stdin: Note down growth recorded for `O=C(/C=C/c1cccc(F)c1)c1cccc(OCCCOc2cccc(C(=O)/C=C/c3cccc(F)c3)c2)c1`
stdout: 77

Data provenance: PubChem BioAssay (NCI)
